Biological target: NCp7 (Human immunodeficiency virus type 1 group M subtype B, UniProt P12493)
Construct: HIV-1 nucleocapsid protein (NCp7)
Assay: NCp7 Trp37 fluorescence decrease assay
Type: biochemical, HIV-1
Details: 50 μM, without GSH
List of NCp7 Trp37 Assay, % Decrease RFU/30 min, without GSH values.
ATTRIBUTE_MEASURED: NCp7 Trp37 Assay, % Decrease RFU/30 min, without GSH (% Decrease RFU/30 min)

{"MOLECULE": "CCOC(=O)C1=C(c2ccccc2)S(=O)OC1 (stereo not drawn) [(8) 53g]", "UNIT_TEXT": "% Decrease RFU/30 min", "MEASURED_NUMBER": 26}
{"MOLECULE": "CCOC(=O)C1=C(c2ccccc2)[S+]([O-])SC1 (stereo not drawn) [53b]", "UNIT_TEXT": "% Decrease RFU/30 min", "MEASURED_NUMBER": 6.5}
{"MOLECULE": "CC1=C(C(=O)OC(C)C)CS[S+]1[O-] (stereo not drawn) [53e]", "UNIT_TEXT": "% Decrease RFU/30 min", "MEASURED_NUMBER": 10.4}
{"MOLECULE": "CC1=C(c2ccccc2)S(=O)OC1 (stereo not drawn) [53f]", "UNIT_TEXT": "% Decrease RFU/30 min", "MEASURED_NUMBER": 0}
{"MOLECULE": "COC(=O)C1=C(c2ccccc2)[S+]([O-])SC1 (stereo not drawn) [53a]", "UNIT_TEXT": "% Decrease RFU/30 min", "MEASURED_NUMBER": 13.5}
{"MOLECULE": "COC(=O)C1=C(c2ccccc2)S(=O)OC1 (stereo not drawn) [53h]", "UNIT_TEXT": "% Decrease RFU/30 min", "MEASURED_NUMBER": 0}
{"MOLECULE": "COC(=O)C1=C(C)S(=O)OC1 (stereo not drawn) [(10) 53g]", "UNIT_TEXT": "% Decrease RFU/30 min", "MEASURED_NUMBER": 0.2}
{"MOLECULE": "CC(C)OC(=O)C1=C(c2ccccc2)[S+]([O-])SC1 (stereo not drawn) [53c]", "UNIT_TEXT": "% Decrease RFU/30 min", "MEASURED_NUMBER": 17.1}
{"MOLECULE": "COC(=O)C1=C(C)[S+]([O-])SC1 (stereo not drawn) [53d]", "UNIT_TEXT": "% Decrease RFU/30 min", "MEASURED_NUMBER": 14.3}
